B1: TPR t1 (parent)
chain: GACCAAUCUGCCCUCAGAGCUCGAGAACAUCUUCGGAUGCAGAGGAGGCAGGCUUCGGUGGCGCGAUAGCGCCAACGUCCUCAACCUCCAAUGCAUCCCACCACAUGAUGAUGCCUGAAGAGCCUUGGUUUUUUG

Variants of: B1
PROTOCOL TEXT: polymerase ribozyme fitness, log enrichment relative to wild type (log ratio); higher = more active; in vitro selection for triplet polymerase activity
Overview of reported polymerase ribozyme fitness (log ratio) across a group of variants:

>  <MUTATION ID>
U9A A16U G63U U132A

>  <polymerase ribozyme fitness (log ratio)>
-1

$$$$
>  <MUTATION ID>
C20U C28U G45C

>  <polymerase ribozyme fitness (log ratio)>
-4.64

$$$$
>  <MUTATION ID>
C3U G69U C98A G113A

>  <polymerase ribozyme fitness (log ratio)>
-1.77

$$$$
>  <MUTATION ID>
C82G G117C

>  <polymerase ribozyme fitness (log ratio)>
-3.58

$$$$
>  <MUTATION ID>
C12A G35U C40U G45A C53G G63C G117C G127U

>  <polymerase ribozyme fitness (log ratio)>
-6.85

$$$$
>  <MUTATION ID>
C11A C56U G69A C76A C79A C124A

>  <polymerase ribozyme fitness (log ratio)>
-7.17

$$$$
>  <MUTATION ID>
C88U C124A

>  <polymerase ribozyme fitness (log ratio)>
1.47

$$$$
>  <MUTATION ID>
C34G A108G

>  <polymerase ribozyme fitness (log ratio)>
-6.09

$$$$
>  <MUTATION ID>
A50C C73A U92G U112A G135A

>  <polymerase ribozyme fitness (log ratio)>
-3.24

$$$$
>  <MUTATION ID>
A37C G39A C62U

>  <polymerase ribozyme fitness (log ratio)>
-3.21

$$$$
>  <MUTATION ID>
A103G G110A

>  <polymerase ribozyme fitness (log ratio)>
-5.82

$$$$
>  <MUTATION ID>
C8G A46C U81A C88U G113A

>  <polymerase ribozyme fitness (log ratio)>
-1.64

$$$$
>  <MUTATION ID>
U54A G61U C62U U96G

>  <polymerase ribozyme fitness (log ratio)>
-6.42

$$$$
>  <MUTATION ID>
C8G G61C

>  <polymerase ribozyme fitness (log ratio)>
-1.09

$$$$
>  <MUTATION ID>
U7A C12G G17U A105G G120C

>  <polymerase ribozyme fitness (log ratio)>
-4.05

$$$$
>  <MUTATION ID>
C3U U9C C49A G69A C115A

>  <polymerase ribozyme fitness (log ratio)>
-0.734

$$$$
>  <MUTATION ID>
G63A C97A

>  <polymerase ribozyme fitness (log ratio)>
-6.64

$$$$
>  <MUTATION ID>
A5G U9G A111U U126A

>  <polymerase ribozyme fitness (log ratio)>
-3.21

$$$$
>  <MUTATION ID>
C72U C82U C98U A119G

>  <polymerase ribozyme fitness (log ratio)>
-0.0419

$$$$
>  <MUTATION ID>
C4U A18C A29G C56A

>  <polymerase ribozyme fitness (log ratio)>
-4.17

$$$$
>  <MUTATION ID>
C70U A90G

>  <polymerase ribozyme fitness (log ratio)>
-0.454

$$$$
>  <MUTATION ID>
C97G A121U

>  <polymerase ribozyme fitness (log ratio)>
-2.07

$$$$
